Hey, just so you know, these numbers are from PubChem BioAssay (NCI).

- Test system: SNB-75 CNS
- measurement_notes: NCI tumour cell line growth inhibition, 48 h; in the data active = GI50 below about 0.43 µM; inactive = the rest
I would appreciate it if you answered using one of these outcomes: 1 (yes) = active, 0 (no) = inactive

Answered examples (3):
>>> class("Cn1ccnc1C(=O)/C=C/c1ccc(C(=O)Nc2ccc(Cl)cc2)cc1")
"0 (no)"
>>> class("Oc1ccc2cc(Br)ccc2c1-c1c(O)ccc2cc(Br)ccc12")
"0 (no)"
>>> class("CC[C@@H](C(=O)[C@@H](C)[C@@H](O)[C@H](C)[C@@H]1O[C@@H]([C@@H](CC)C(=O)O)CC[C@@H]1C)C1O[C@]2(C=CC(=O)[C@]3(CC[C@@](C)([C@H]4CC[C@](O)(CC)[C@H](C)O4)O3)O2)[C@H](C)C[C@@H]1C (some centres undefined)")
"0 (no)"

Consider now this further molecule.
What did the test return for COc1cc(-c2nc(Nc3nc4ccccc4[nH]3)nc(N)c2C#N)cc(OC)c1OC ? 1 (yes)

* * *

- Tested on: MDA-N
- measurement_notes: NCI tumour cell line growth inhibition, 48 h
recorded_endpoint: TGI

Examples from the recorded data:
>>> observed_measurement("Cc1ccc([N+](=O)[O-])c2c(NCCNC(=O)Cn3ccnc3[N+](=O)[O-])ccnc12")
"> 100 µM"
>>> observed_measurement("Cc1ccc(Cl)c2c(=O)c3ccc([N+](=O)[O-])cc3sc12")
"> 100 µM"
>>> observed_measurement("COCO[C@@H]1C[C@H]2C(O)Nc3ccccc3C(=O)N2C1 (stereo not given in full)")
"> 100 µM"

Please report the recorded TGI for CC(C)/C(Cl)=N\OC(=O)Nc1cccc(F)c1 . 29.5 µM

Same for CC(C)=CC1C(COC(=O)c2cc3c(cc2Cl)OCO3)C1(C)C (stereo not given) > 100 µM

Same for COc1ccccc1C1SCC(=O)N1c1ccc(-n2c(-c3ccccc3)nc3ccccc3c2=O)cc1 (stereo not given) > 100 µM

Same for CN(C)c1ccc(/C=C2/SC(=S)NC2=O)cc1 > 100 µM

Same for CC(=O)C1C(=O)C(=O)N(c2cccc(C)c2C)C1=O (stereo not given) > 100 µM

Same for COc1ccc2cc(C(C)C(O)c3cc(F)c(F)c(F)c3F)ccc2c1 (stereo not given) > 100 µM

Same for Cc1ccc2c(c1)C(=O)/C(=C\c1ccccc1)CCS2(=O)=O > 52.4 µM

* * *

- Tested on: SNB-19 CNS
- measurement_notes: NCI tumour cell line growth inhibition, 48 h
recorded_endpoint: TGI

>>> observed_measurement("COCc1nc2c(OC)cc(-c3nc4nc(N5CCN(C)CC5)ccc4[nH]3)c(OC)c2[nH]1")
"> 100 µM"
>>> observed_measurement("CSc1c(C(=O)Nc2ccc(Cl)cc2)c(N)nn1-c1ccccc1")
"> 100 µM"
>>> observed_measurement("Cc1c(Cl)ccc2c1NC(=O)C2(O)C(C(=O)c1ccccc1)c1ccccc1 (stereo unspecified)")
"> 100 µM"
>>> observed_measurement("Cc1ccc(NC(=O)CCC(CC(=O)C(C)(C)C)=NNC(=O)C(=O)NN)cc1C")
"> 100 µM"
>>> observed_measurement("CCC[CH2][Sn]1([CH2]CCC)[O]C(=O)c2cc(I)cc(I)c2[O]1")
"2.55 µM"

Please report the recorded TGI for Cn1cncc1[C@@](N)(c1ccc(Cl)cc1)c1ccc2c(c1)c(-c1cccc(Cl)c1)cc(=O)n2C . 19.7 µM

Same for COc1ccccc1C1SCC(=O)N1c1ccc(-n2c(-c3ccccc3)nc3ccccc3c2=O)cc1 (stereo unspecified) > 100 µM

Same for O=C1NN(c2ccc(C(=O)O)cc2)C(=O)/C1=C\c1ccc([N+](=O)[O-])o1 > 100 µM
